Data provenance is ChEMBL document CHEMBL4304781.

- PROTOCOL_NOTES: Inhibition of cynomolgus monkey CYP11B1
- Assay type: ADME, Macaca fascicularis
READOUT_TYPE: IC50 (µM)

- CHEMICAL_SMILES: "Fc1cc2nc(-c3cncnc3C(F)(F)F)n(C3CC3)c2cc1F"
  UNIT_OF_MEASURE: "µM"
  VALUE: 8.85

====

- PROTOCOL_NOTES: Stability in cynomolgus monkey liver microsomes assessed as parent compound remaining at 1 uM measured after 65 mins by LC/MS-MS analysis
- Format: ADME, Macaca fascicularis, Microsome
- CONDITION_CONTEXT: read-out: Stability
Catalogue of remaining at 65 min, 1 µM values

- CHEMICAL_SMILES: "Fc1cc2nc(-c3cncnc3)n(C3CC3)c2cc1F"
  remaining at 65 min, 1 µM [%]: 98
- CHEMICAL_SMILES: "N#Cc1ncncc1-c1nc2cc(F)c(F)cc2n1C1CC1"
  remaining at 65 min, 1 µM [%]: 85
- CHEMICAL_SMILES: "CCc1ncncc1-c1nc2cc(F)c(F)cc2n1C1CC1"
  remaining at 65 min, 1 µM [%]: 78
- CHEMICAL_SMILES: "Fc1cc2nc(-c3cncnc3NCCC(F)(F)F)n(C3CC3)c2cc1F"
  remaining at 65 min, 1 µM [%]: 55
- CHEMICAL_SMILES: "CN(C)c1ncncc1-c1nc2cc(F)c(F)cc2n1C1CC1"
  remaining at 65 min, 1 µM [%]: 6
- CHEMICAL_SMILES: "N#Cc1ccc2nc(-c3cncnc3C(F)F)n(C3CC3)c2n1"
  remaining at 65 min, 1 µM [%]: 101
- CHEMICAL_SMILES: "CC(C)c1ncncc1-c1nc2cc(F)c(F)cc2n1C1CC1"
  remaining at 65 min, 1 µM [%]: 80
